- testedOn: Human AMPK α2β2γ1 (Homo sapiens, UniProt O43741+P54646)
- Construct: The full length cDNAs of human AMPK β2 (NM_005399.3) and human AMPK α2 (NM_006252.3); The full length cDNAs of human AMPK β2 (NM_005399.3); the full length cDNA of human AMPK γ1 (NM_002733.3) had been inserted into pET28b(+); 6xHis (N); made in house; host or cells: Escherichia coli BL21 CodonPlus (DE3)-RTL (AMPK); BL21 Star (DE3) (CaMKKβ)
- Sequence (P54646 whole entry): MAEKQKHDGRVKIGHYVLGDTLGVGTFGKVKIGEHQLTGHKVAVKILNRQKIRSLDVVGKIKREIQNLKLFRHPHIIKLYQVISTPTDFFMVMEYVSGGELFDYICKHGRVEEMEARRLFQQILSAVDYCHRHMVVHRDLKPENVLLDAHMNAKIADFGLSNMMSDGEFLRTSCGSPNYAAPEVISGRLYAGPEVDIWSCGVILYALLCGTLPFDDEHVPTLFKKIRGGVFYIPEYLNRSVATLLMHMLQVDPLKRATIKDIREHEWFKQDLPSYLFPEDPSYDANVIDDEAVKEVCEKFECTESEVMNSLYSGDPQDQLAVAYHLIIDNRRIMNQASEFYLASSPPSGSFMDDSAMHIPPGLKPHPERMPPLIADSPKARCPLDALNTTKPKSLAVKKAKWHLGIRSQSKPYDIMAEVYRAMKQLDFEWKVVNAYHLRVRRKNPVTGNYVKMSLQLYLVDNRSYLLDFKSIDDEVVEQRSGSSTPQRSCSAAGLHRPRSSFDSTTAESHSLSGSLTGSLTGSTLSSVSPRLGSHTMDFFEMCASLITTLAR
- Sequence (O43741 whole entry): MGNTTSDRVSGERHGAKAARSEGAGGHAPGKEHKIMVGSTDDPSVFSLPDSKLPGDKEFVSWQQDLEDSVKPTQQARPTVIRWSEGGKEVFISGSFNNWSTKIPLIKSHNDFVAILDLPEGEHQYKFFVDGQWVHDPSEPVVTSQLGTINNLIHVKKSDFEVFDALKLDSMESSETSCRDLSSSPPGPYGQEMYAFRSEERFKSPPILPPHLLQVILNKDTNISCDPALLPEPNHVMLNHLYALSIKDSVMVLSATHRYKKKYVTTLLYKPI
- Sequence (P54619 whole entry partner): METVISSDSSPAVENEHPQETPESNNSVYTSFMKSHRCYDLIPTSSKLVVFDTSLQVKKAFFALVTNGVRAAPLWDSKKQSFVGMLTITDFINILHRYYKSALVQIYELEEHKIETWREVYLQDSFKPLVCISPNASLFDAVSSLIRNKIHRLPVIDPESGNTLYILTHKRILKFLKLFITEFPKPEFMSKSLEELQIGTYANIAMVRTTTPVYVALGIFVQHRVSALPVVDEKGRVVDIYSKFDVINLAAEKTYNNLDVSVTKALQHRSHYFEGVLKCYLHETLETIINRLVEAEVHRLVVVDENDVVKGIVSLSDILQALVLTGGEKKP
- assay: Test Example 2: evaluation of an activator for AMP-activated protein kinase (AMPK), human AMPK α2β2γ1 phosphorylated with CaMKK2, FL-Peptide 7 mobility shift
- Format: biochemical
- testContext: human AMPK α2β2γ1, relative to control (100%); read-out: Emax (maximum rate of increase in activity within the measurement range)
assayReadout: Emax (%)
Respond numerically; units are % and should not be typed.

Observe how each entry below is paired with its result.
- molecule: "CNS(=O)(=O)c1ccc(-c2ccc(-c3nc4cc(O[C@@H]5CO[C@H]6[C@@H]5OC[C@H]6O)[nH]c4cc3F)cc2)cc1"
  measureUnit: "%"
  Emax: 479
- molecule: "O=C(O)C1CC=C(c2ccc(-c3nc4c(Cl)c(O[C@@H]5CO[C@H](CO)C5)[nH]c4cc3Cl)cc2)CC1 (stereo partly drawn)"
  measureUnit: "%"
  Emax: 689
- molecule: "N#Cc1c(O[C@@H]2CO[C@H]3[C@@H]2OC[C@H]3O)[nH]c2cc(Cl)c(-c3ccc(-c4cnn(CCO)c4)cc3)nc12"
  measureUnit: "%"
  Emax: 510

Consider COc1ccc(-c2nc3cc(O[C@@H]4CO[C@H]5[C@@H]4OC[C@H]5O)[nH]c3cc2F)cc1 . Its measured Emax is 446

Sample N#Cc1cc2[nH]c(O[C@@H]3CO[C@H]4[C@@H]3OC[C@H]4O)cc2nc1-c1ccc(-c2ccccc2)cc1 ; Emax observed: 492

Note to self: Emax recorded for O[C@@H]1CO[C@H]2[C@@H]1OC[C@H]2Oc1cc2nc(-c3ccc(OCCCN4CCOCC4)cc3)c(F)cc2[nH]1 was 475

---

# Lookup of reported EC150 (compound concentration showing 150% relative to the control (100%)) keyed by entry
- testedOn: Human AMPK α2β2γ1 (Homo sapiens, UniProt O43741+P54646)
- Construct: The full length cDNAs of human AMPK β2 (NM_005399.3) and human AMPK α2 (NM_006252.3); The full length cDNAs of human AMPK β2 (NM_005399.3); the full length cDNA of human AMPK γ1 (NM_002733.3) had been inserted into pET28b(+); 6xHis (N); made in house; host or cells: Escherichia coli BL21 CodonPlus (DE3)-RTL (AMPK); BL21 Star (DE3) (CaMKKβ)
- assay: Test Example 2: evaluation of an activator for AMP-activated protein kinase (AMPK), human AMPK α2β2γ1 phosphorylated with CaMKK2, FL-Peptide 7 mobility shift
- Format: biochemical
- testContext: human AMPK α2β2γ1, 0.2 mM ATP final, 25° C., 2 hours
Use nM as the unit, but write only the number.

- molecule: "CN=S(C)(=O)c1ccc(-c2ccc(-c3nc4cc(O[C@@H]5CO[C@H]6[C@@H]5OC[C@H]6O)[nH]c4cc3F)cc2)cc1 (stereo partly drawn) [Compound I-4-37]"
  observedMeasurement: 1.5

Entry N#Cc1c(O[C@@H]2CO[C@H]3[C@@H]2OC[C@H]3O)[nH]c2cc(Cl)c(-c3ccc(C4=CCN(C(=O)CO)CC4)cc3)nc12 , Human AMPK α2β2γ1 (Homo sapiens, UniProt O43741+P54646) data, EC150 (compound concentration showing 150% relative to the control (100%)) value: 23

Record CC(C)(C(=O)O)[C@H]1CC[C@H](Oc2cc3nc(-c4ccc(N5CC[C@@H](O)C5)cc4)c(Cl)cc3[nH]2)CC1 / Human AMPK α2β2γ1 (Homo sapiens, UniProt O43741+P54646), EC150 (compound concentration showing 150% relative to the control (100%)) recorded as 98

---

- testedOn: Human AMPK α2β2γ1 (Homo sapiens, UniProt O43741+P54646)
- Construct: The full length cDNAs of human AMPK β2 (NM_005399.3) and human AMPK α2 (NM_006252.3); The full length cDNAs of human AMPK β2 (NM_005399.3); the full length cDNA of human AMPK γ1 (NM_002733.3) had been inserted into pET28b(+); 6xHis (N); made in house; host or cells: Escherichia coli BL21 CodonPlus (DE3)-RTL (AMPK); BL21 Star (DE3) (CaMKKβ)
- assay: Test Example 2: evaluation of an activator for AMP-activated protein kinase (AMPK), human AMPK α2β2γ1 phosphorylated with CaMKK2, FL-Peptide 7 mobility shift
- Assay type: biochemical
- testContext: human AMPK α2β2γ1, 0.2 mM ATP final, 25° C., 2 hours
assayReadout: EC150 (compound concentration showing 150% relative to the control (100%)) (nM)
Please state the figure in nM; there is no need to write the unit.

Past entries and their recorded results:
- compound: "O[C@@H]1CO[C@H]2[C@@H]1OC[C@H]2Oc1[nH]c2cc(Cl)c(-c3ccc(N4CCOCC4)cc3)nc2c1F [Compound I-2-8]"
  observedMeasurement: 8.9
- compound: "O=C(CO)N1CC=C(c2cc(F)c(-c3nc4cc(O[C@@H]5CO[C@H]6[C@@H]5OC[C@H]6O)[nH]c4cc3Cl)c(F)c2)CC1 [Compound I-1-10]"
  observedMeasurement: 1.8
- compound: "O=C(O)C1CC=C(c2ccc(-c3nc4cc(O[C@H]5CCOC5)[nH]c4cc3Cl)cc2)CC1 (stereo partly drawn) [Compound I-1-8]"
  observedMeasurement: 4.1

Bench note, Human AMPK α2β2γ1 (Homo sapiens, UniProt O43741+P54646): O[C@@H]1CO[C@H]2[C@@H]1OC[C@H]2Oc1[nH]c2cc(Cl)c(-c3ccc(N4CCOCC4)cc3)nc2c1Br [Compound I-2-9] , EC150 (compound concentration showing 150% relative to the control (100%)) reads 66

Hey, Human AMPK α2β2γ1 (Homo sapiens, UniProt O43741+P54646) data for CS(=N)(=O)c1ccc(-c2ccc(-c3nc4cc(O[C@@H]5CO[C@H]6[C@@H]5OC[C@H]6O)[nH]c4cc3F)cc2)cc1 (stereo partly drawn) [Compound I-3-43] : EC150 (compound concentration showing 150% relative to the control (100%)) came out at 0.84

I looked up Cn1cc(-c2ccc(-c3nc4c(C#N)c(O[C@@H]5CO[C@H]6[C@@H]5OC[C@H]6O)[nH]c4cc3Cl)cc2)cn1 [Compound I-2-11] and its EC150 (compound concentration showing 150% relative to the control (100%)) for Human AMPK α2β2γ1 (Homo sapiens, UniProt O43741+P54646) was 40

Noted EC150 (compound concentration showing 150% relative to the control (100%)) for N#Cc1c(O[C@@H]2CO[C@H]3[C@@H]2OC[C@H]3O)[nH]c2cc(Cl)c(-c3ccc(-c4cnn(CCO)c4)cc3)nc12 [Compound I-2-46] , tested on Human AMPK α2β2γ1 (Homo sapiens, UniProt O43741+P54646): 77

With Human AMPK α2β2γ1 (Homo sapiens, UniProt O43741+P54646) as the test system, O=C(CO)NCCCOc1ccc(-c2nc3cc(O[C@@H]4CO[C@H]5[C@@H]4OC[C@H]5O)[nH]c3cc2F)cc1 [Compound I-3-31] showed EC150 (compound concentration showing 150% relative to the control (100%)) of 55

Record for O[C@@H]1CO[C@H]2[C@@H]1OC[C@H]2Oc1cc2nc(-c3ccc(C4(O)CCC4)cc3)c(F)cc2[nH]1 [Compound I-2-34] under target or system Human AMPK α2β2γ1 (Homo sapiens, UniProt O43741+P54646): EC150 (compound concentration showing 150% relative to the control (100%)) reported as 20

Lab entry: Human AMPK α2β2γ1 (Homo sapiens, UniProt O43741+P54646) assay, compound COC(=O)NC1CCN(c2ccc(-c3nc4cc(O[C@@H]5CO[C@H]6[C@@H]5OC[C@H]6O)[nH]c4cc3F)cc2)CC1 [Compound I-4-53] , EC150 (compound concentration showing 150% relative to the control (100%)) = 10

Form field, EC150 (compound concentration showing 150% relative to the control (100%)) with Human AMPK α2β2γ1 (Homo sapiens, UniProt O43741+P54646), item CCS(C)(=O)=Nc1ccc(-c2ccc(-c3nc4cc(O[C@@H]5CO[C@H]6[C@@H]5OC[C@H]6O)[nH]c4cc3F)cc2)cc1 (stereo partly drawn) [Compound I-4-43] : 1.3

CNS(=O)(=O)c1ccc(-c2ccc(-c3nc4cc(O[C@@H]5CO[C@H]6[C@@H]5OC[C@H]6O)[nH]c4cc3F)cc2)cc1 [Compound I-4-39] tested on Human AMPK α2β2γ1 (Homo sapiens, UniProt O43741+P54646) gave EC150 (compound concentration showing 150% relative to the control (100%)): 1.9
